Source: patent US20230265151A1

Would you mind telling me the reported pKi of each entry?
Experimental system: T1, human GIP receptor (human, UniProt P48546 22-466)
T1 construct: whole, on cells; also called hGIPR; human glucose-dependent insulinotropic polypeptide receptor
T1 sequence (looked up): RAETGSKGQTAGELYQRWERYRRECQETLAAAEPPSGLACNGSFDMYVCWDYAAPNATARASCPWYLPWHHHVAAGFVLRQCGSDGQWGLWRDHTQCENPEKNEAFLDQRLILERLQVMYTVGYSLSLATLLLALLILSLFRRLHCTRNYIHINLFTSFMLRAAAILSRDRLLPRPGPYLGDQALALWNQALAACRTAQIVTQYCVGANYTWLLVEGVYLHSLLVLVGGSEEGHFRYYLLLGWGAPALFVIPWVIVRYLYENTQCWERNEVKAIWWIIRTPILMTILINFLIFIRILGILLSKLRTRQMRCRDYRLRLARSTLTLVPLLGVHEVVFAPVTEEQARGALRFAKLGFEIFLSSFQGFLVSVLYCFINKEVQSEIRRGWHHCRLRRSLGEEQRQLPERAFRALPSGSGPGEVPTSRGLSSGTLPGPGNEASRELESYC
Measurement description: SPA competition vs [125I]-GIP, hGIPR membranes
Note on pKi: it is the negative log10 of concentration, concentration in mol/L.

input: // fetch pKi given entry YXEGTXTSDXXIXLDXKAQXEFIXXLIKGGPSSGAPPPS (Aib2, αMeF(2F)6, 4Pal10, Aib11, αMeL13, Orn16, K17(Z1), Aib20, D-Glu24 (printed e), αMeY25, K28(Z1), C-term NH2; Z1=AEEA-(γ-Glu)-(10-(4-carboxyphenoxy)decanoyl))
output: 10.24

input: Supply measured pKi of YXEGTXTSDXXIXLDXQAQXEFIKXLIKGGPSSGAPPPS (Aib2, αMeF(2F)6, 4Pal10, Aib11, αMeL13, Orn16, Aib20, K24(Z1), αMeY25, K28(Z1), C-term NH2; Z1=AEEA3-(γ-Glu)-(10-(4-carboxyphenoxy)decanoyl)) in your reply.
output: 10.58

input: # return recorded pKi for entry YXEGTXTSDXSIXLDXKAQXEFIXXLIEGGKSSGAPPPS (Aib2, αMeF(2F)6, 4Pal10, αMeL13, Orn16, K17(Z1), Aib20, D-Glu24, αMeY25, K31(Z1), C-term NH2; Z1=AEEA2-(γ-Glu)-(4-(4-iodophenyl)butanoyl))
output: 10.20

input: For the binder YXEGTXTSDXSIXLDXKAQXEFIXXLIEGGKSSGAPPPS (Aib2, αMeF6, 4Pal10, αMeF13, Orn16, K17(Z1), Aib20, D-Glu24, αMeY25, K31(Z1), C-term NH2; Z1=AEEA2-(γ-Glu)-CO-(CH2)12-CO2H) , give its measured pKi value.
output: 10.17

input: Given the binder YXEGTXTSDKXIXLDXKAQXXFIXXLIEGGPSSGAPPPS (Aib2, αMeF(2F)6, K10(Z1), Aib11, αMeL13, Orn16, K17(Z1), Aib20, Orn21, D-Glu24, αMeY25, C-term NH2; Z1=AEEA2-(γ-Glu)-CO-(CH2)10-CH3) , write its reported pKi.
output: 10.67

input: Give the reported pKi for this binder. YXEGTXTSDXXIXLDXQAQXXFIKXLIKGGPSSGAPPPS (Aib2, αMeF(2F)6, 4Pal10, Aib11, αMeL13, Orn16, Aib20, Orn21, K24(Z1), αMeY25, K28(Z1), C-term NH2; Z1=AEEA-(γ-Glu)-AEEA-(γ-Glu)-(10-(4-carboxyphenoxy)decanoyl))
output: 10.26
